Provenance of the data: ChEMBL document CHEMBL1139869

Assayed system: Seed linoleate 13S-lipoxygenase-1 (Glycine max)
Test summary: Inhibition of soybean lipoxygenase at 0.1 mM
Outcome measure: inhibition (%)
Please state the figure in %; there is no need to write the unit.

Some solved entries appear below for comparison.
O=C(CCCCC1CCSS1)Nc1ccccc1NC(=O)c1c(O)c2ccccc2n(-c2ccccc2)c1=O (centres undefined) | 100
Cn1c(=O)c(C(=O)NCCCCCCN)c(O)c2ccccc21 | 92.1
Cn1c(=O)c(C(=O)NCCCCCCNC(=O)CCCCC2CCSS2)c(O)c2ccccc21 (centres undefined) | 79.1
COC(=O)c1c(O)c2ccccc2n(-c2ccccc2)c1=O | 100
NCCNC(=O)c1c(O)c2ccccc2n(-c2ccccc2)c1=O | 82.3

Param readout = inhibition; param system = Seed linoleate 13S-lipoxygenase-1 (Glycine max); param query = Nc1ccc(NC(=O)c2c(O)c3ccccc3n(-c3ccccc3)c2=O)cc1 ; response: value
58.9

Check NCCCCCCNC(=O)c1c(O)c2ccccc2n(-c2ccccc2)c1=O too.
17.6

Check Cn1c(=O)c(C(=O)Nc2ccccc2N)c(O)c2ccccc21 too.
71.3

Check O=C(CCCCC1CCSS1)NCCCCCCNC(=O)c1c(O)c2ccccc2n(-c2ccccc2)c1=O (centres undefined) too.
64

Check COC(=O)c1c(O)c2ccccc2n(C)c1=O too.
72.4

Check Cn1c(=O)c(C(=O)Nc2ccc(N)cc2)c(O)c2ccccc21 too.
50.8

Check O=C(O)CCCCC1CCSS1 (centres undefined) too.
29.1

Check Cn1c(=O)c(C(=O)NCCN)c(O)c2ccccc21 too.
99.5

Check Cn1c(=O)c(C(=O)NCCNC(=O)CCCCC2CCSS2)c(O)c2ccccc21 (centres undefined) too.
66.5
